Consider the following compounds and their measured IC50 readings.
Test system: RS4; 11
Experiment: Cell viability assay (MTS) in RS4; 11 cells
Format: cell-based
Conditions: Homo sapiens, RS4-11; Table 2; 48 hr; MTS; read-out: Anti-Cancer Activity IC50 (48 hr) RS4; 11

Some compounds with known IC50 results, for comparison:
Ask | Tell me the measured IC50 of Cc1ncsc1-c1ccc([C@H](C)NC(=O)[C@@H]2C[C@@H](O)CN2C(=O)[C@@H](NC(=O)CCCCCCNC(=O)c2ccc(N3CCN(C[C@]4(C)CCC(c5ccc(Cl)cc5)=C(CN5CCN(c6ccc(C(=O)NS(=O)(=O)c7ccc(N[C@H](CCN8C[C@H]9C[C@@H]8CO9)CSc8ccccc8)c(S(=O)(=O)C(F)(F)F)c7)cc6)CC5)C4)CC3)nc2)C(C)(C)C)cc1 , please.
Reply | < 20 nM

Ask | Tell me the measured IC50 of Cc1ncsc1-c1ccc([C@H](C)NC(=O)[C@@H]2C[C@@H](O)CN2C(=O)[C@@H](NC(=O)CCCCCNC(=O)c2cnc(N3CCN(C[C@]4(C)CCC(c5ccc(Cl)cc5)=C(CN5CCN(c6ccc(C(=O)NS(=O)(=O)c7ccc(N[C@H](CCN8CCCOCC8)CSc8ccccc8)c(S(=O)(=O)C(F)(F)F)c7)cc6)CC5)C4)CC3)nc2)C(C)(C)C)cc1 , please.
Reply | 20 to 100 nM

Ask | Tell me the measured IC50 of Cc1ncsc1-c1ccc([C@H](C)NC(=O)[C@@H]2C[C@@H](O)CN2C(=O)[C@@H](NC(=O)CC2CCN(CC(=O)N3CCN(C[C@]4(C)CCC(c5ccc(Cl)cc5)=C(CN5CCN(c6ccc(C(=O)NS(=O)(=O)c7ccc(N[C@H](CCN8CCCOCC8)CSc8ccccc8)c(S(=O)(=O)C(F)(F)F)c7)cc6)CC5)C4)CC3)CC2)C(C)(C)C)cc1 , please.
Reply | 20 to 100 nM

Ask | Tell me the measured IC50 of Cc1ncsc1-c1ccc([C@H](C)NC(=O)[C@@H]2C[C@@H](O)CN2C(=O)[C@@H](NC(=O)CCCCCCC(=O)N2CCN(CC3(C)CCC(c4ccc(Cl)cc4)=C(CN4CCN(c5ccc(C(=O)NS(=O)(=O)c6ccc(N[C@H](CCN7C[C@H]8C[C@@H]7CO8)CSc7ccccc7)c([N+](=O)[O-])c6)cc5)CC4)C3)CC2)C(C)(C)C)cc1 (stereo partly drawn) , please.
Reply | < 20 nM

Ask | Tell me the measured IC50 of Cc1ncsc1-c1ccc([C@H](C)NC(=O)[C@@H]2C[C@@H](O)CN2C(=O)[C@@H](NC(=O)CCCCCCC(=O)N2CCN(C[C@]3(C)CCC(c4ccc(Cl)cc4)=C(CN4CCN(c5ccc(C(=O)NS(=O)(=O)c6ccc(N[C@H](CCN7CCOC[C@H]7C)CSc7ccccc7)c(S(=O)(=O)C(F)(F)F)c6)cc5)CC4)C3)CC2)C(C)(C)C)cc1 , please.
Reply | < 20 nM

Ask | Tell me the measured IC50 of Cc1ncsc1-c1ccc([C@H](C)NC(=O)[C@@H]2C[C@@H](O)CN2C(=O)[C@@H](NC(=O)CCCCC(=O)N2CCC(C3CCN(CC4(C)CCC(c5ccc(Cl)cc5)=C(CN5CCN(c6ccc(C(=O)NS(=O)(=O)c7ccc(N[C@H](CCN8C[C@H]9C[C@@H]8CO9)CSc8ccccc8)c([N+](=O)[O-])c7)cc6)CC5)C4)CC3)CC2)C(C)(C)C)cc1 (stereo partly drawn) , please.
Reply | < 20 nM

Ask | Tell me the measured IC50 of Cc1ncsc1-c1ccc([C@H](C)NC(=O)[C@@H]2C[C@@H](O)CN2C(=O)[C@@H](NC(=O)CCCCCCCC(=O)N2CCN(CCC3(C)CCC(c4ccc(Cl)cc4)=C(CN4CCN(c5ccc(C(=O)NS(=O)(=O)c6ccc(N[C@H](CCN7CCOCC7)CSc7ccccc7)c(S(=O)(=O)C(F)(F)F)c6)cc5)CC4)C3)CC2)C(C)(C)C)cc1 (stereo partly drawn) , please.
Reply | 20 to 100 nM

Ask | Tell me the measured IC50 of Cc1ncsc1-c1ccc([C@H](C)NC(=O)[C@@H]2C[C@@H](O)CN2C(=O)[C@@H](NC(=O)CCCCCCC(=O)N2CCN(C[C@]3(C)CCC(c4ccc(Cl)cc4)=C(CN4CCN(c5ccc(C(=O)NS(=O)(=O)c6ccc(N[C@H](CCN7CC8CCC7C8)CSc7ccccc7)c([N+](=O)[O-])c6)cc5)CC4)C3)CC2)C(C)(C)C)cc1 (stereo partly drawn) , please.
Reply | < 20 nM

Ask | Tell me the measured IC50 of Cc1ncsc1-c1ccc([C@H](C)NC(=O)[C@@H]2C[C@@H](O)CN2C(=O)[C@@H](NC(=O)CN2CCN(CC(=O)N3CCN(C[C@]4(C)CCC(c5ccc(Cl)cc5)=C(CN5CCN(c6ccc(C(=O)NS(=O)(=O)c7ccc(N[C@H](CCN8CCCOCC8)CSc8ccccc8)c(S(=O)(=O)C(F)(F)F)c7)cc6)CC5)C4)CC3)CC2)C(C)(C)C)cc1 , please.
Reply | < 20 nM

Ask | Tell me the measured IC50 of Cc1ncsc1-c1ccc([C@H](C)NC(=O)[C@@H]2C[C@@H](O)CN2C(=O)[C@@H](NC(=O)CCCCCCC(=O)N2CCN(CC3(C)CCC(c4ccc(Cl)cc4)=C(CN4CCN(c5ccc(C(=O)NS(=O)(=O)c6ccc(N[C@H](CCN(C)C)CSc7ccccc7)c(S(=O)(=O)C(F)(F)F)c6)cc5)CC4)C3)CC2)C(C)(C)C)cc1 (stereo partly drawn) , please.
Reply | < 20 nM

***
Ask | Tell me the measured IC50 of Cc1ncsc1-c1ccc([C@H](C)NC(=O)[C@@H]2C[C@@H](O)CN2C(=O)[C@@H](NC(=O)CCCCCCC(=O)N2CCN(C[C@]3(C)CCC(c4ccc(Cl)cc4)=C(CN4CCN(c5ccc(C(=O)NS(=O)(=O)c6ccc(N[C@H](CCN7CCCOCC7)CSc7ccccc7)c(S(=O)(=O)C(F)(F)F)c6)cc5)CC4)C3)C[C@H]2C)C(C)(C)C)cc1 , please.
Reply | < 20 nM

Ask | Tell me the measured IC50 of Cc1ncsc1-c1ccc([C@H](C)NC(=O)[C@@H]2C[C@@H](O)CN2C(=O)[C@@H](NC(=O)CCCCCNC(=O)c2ccc(CN3CCN(C[C@]4(C)CCC(c5ccc(Cl)cc5)=C(CN5CCN(c6ccc(C(=O)NS(=O)(=O)c7ccc(N[C@H](CCN8CCCOCC8)CSc8ccccc8)c(S(=O)(=O)C(F)(F)F)c7)cc6)CC5)C4)CC3)nc2)C(C)(C)C)cc1 , please.
Reply | < 20 nM
